This collection of values is drawn from paper PMC10916382.

method notes: in vitro
condition parameters: Anti-SARS-CoV-2 screening on Calu-3 cells: viability [% of control], Calu-3 cells
result type: viability (%)
Give just the numeric value; % need not be written.

Completed entries (count: 5):
CCOC(=O)/C=C/[C@H](C[C@@H]1CCNC1=O)NC(=O)[C@@H](CC(=O)[C@@H](NC(=O)c1cc(C)on1)C(C)C)Cc1ccc(F)cc1 :: 100
CC/C(=C(\c1ccc(O)cc1)c1ccc(OCCN(C)C)cc1)c1ccccc1 :: 93.4
Cc1c(NCCN2CCCC2)cc(C(=O)C(C)(C)C)cc1N1CCN(c2ncnc3[nH]nc(Br)c23)CC1 :: 104
CCOc1cc2c(c(F)c1OCC)C(=N)N(CC(=O)c1cc(N3CCOCC3)c(OC)c(C(C)(C)C)c1)C2 :: 81.4
CC(OCCN1CCCCCC1)(c1ccccc1)c1ccc(Cl)cc1 (stereo not shown) :: 95.3

// query I have this compound here, `CN(C)C(=O)NC1(c2ccccc2)CCN(CCC[C@]2(c3ccc(Cl)c(Cl)c3)CCCN(C(=O)c3ccccc3)C2)CC1` , and I need its recorded viability.
// result 109

// query I have this compound here, `CO[C@@H]1[C@H](O)C[C@@H](O[C@@H]2C[C@H](Oc3cc4cc5c(c(O)c4c(O)c3C)C(=O)[C@@H](O[C@H]3C[C@@H](O[C@H]4C[C@@H](O[C@H]6C[C@](C)(O)[C@@H](OC(C)=O)[C@H](C)O6)[C@H](O)[C@@H](C)O4)[C@H](O)[C@@H](C)O3)[C@H]([C@H](OC)C(=O)[C@@H](O)[C@@H](C)O)C5)O[C@H](C)[C@@H]2OC(C)=O)O[C@@H]1C` , and I need its recorded viability.
// result 61.3

// query I have this compound here, CC(C)NCC(O)COc1ccc(CC(=O)OCCC23CC4CC(CC(C4)C2)C3)cc1 (stereo not shown) , and I need its recorded viability.
// result 90.2

// query I have this compound here, CC(C(O)c1ccccc1)N(C)CC=C1c2ccccc2CCc2ccccc21 (stereo not shown) , and I need its recorded viability.
// result 107

// query I have this compound here, `CN[C@@H](CC(C)C)C(=O)NCCCC(c1ccc(F)cc1)c1ccc(F)cc1` , and I need its recorded viability.
// result 99.2

// query I have this compound here, CN(C)CCOC(c1ccccc1)c1ccc(Br)cc1 (stereo not shown) , and I need its recorded viability.
// result 92.2

// query I have this compound here, `O=c1[nH]c2cc(Cl)ccc2n1C1CCN(CCCC(c2ccc(F)cc2)c2ccc(F)cc2)CC1` , and I need its recorded viability.
// result 107

// query I have this compound here, COCCN1CCN(Cc2ccc(-c3n[nH]c4c3C(=O)c3c(NC(=O)NN5CCOCC5)cccc3-4)cc2)CC1 [RGB-286638, reference compound] , and I need its recorded viability.
// result 19

* * *

Tested on: SARS-CoV-2
condition parameters: Calu-3 cells
result type: Anti-SARS-CoV-2 screening on Calu-3 cells: viability [% of control]

Completed entries (count: 3):
C=CCc1c(OCCCNCc2ccccc2)ccc2c1[nH]c1ccccc12 :: 100.37 % of control
C=C1C[C@@H]2CC[C@@]34C[C@H]5O[C@H]6[C@@H](O3)[C@H]3O[C@H](CC[C@@H]3O[C@H]6[C@H]5O4)CC(=O)C[C@@H]3[C@@H](OC)[C@@H](C[C@H](O)CN)O[C@H]3C[C@H]3O[C@@H](CC[C@@H]1O2)C[C@@H](C)C3=C [Eribulin (mesylate)] :: 41.43 % of control
OCCNCCOc1ccc(/C(=C(\c2ccccc2)C(F)(F)F)c2ccccc2)cc1 :: 98.59 % of control

Kindly review the next molecule as well.
// query I have this molecule here, `C1=C(c2ccc(CN3CCCCC3)cc2)N2CCN=C2c2ccccc21` , and I need its recorded Anti-SARS-CoV-2 screening on Calu-3 cells: viability [% of control].
// result 104.96 % of control
